These data points were gathered from ChEMBL document CHEMBL4665666.

- MEASURED_ON: Cruzipain (Trypanosoma cruzi) (UniProt P25779)
- Sequence (P25779 123-467 limits assumed): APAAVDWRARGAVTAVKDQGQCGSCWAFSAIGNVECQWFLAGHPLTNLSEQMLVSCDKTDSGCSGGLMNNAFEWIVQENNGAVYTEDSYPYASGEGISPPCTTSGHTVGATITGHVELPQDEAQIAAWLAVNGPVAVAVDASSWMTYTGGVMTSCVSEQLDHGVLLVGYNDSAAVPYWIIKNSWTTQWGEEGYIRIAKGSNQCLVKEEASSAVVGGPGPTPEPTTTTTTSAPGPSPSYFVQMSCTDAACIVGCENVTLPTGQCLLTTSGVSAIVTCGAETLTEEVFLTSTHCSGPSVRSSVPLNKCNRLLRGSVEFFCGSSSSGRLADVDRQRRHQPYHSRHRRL
- PROTOCOL_SUMMARY: Inhibition of recombinant Trypanosoma cruzi cruzain at 5 uM using Z-FR-AMC as substrate and measured at 12 sec interval for 5 mins without preincubation by fluorimetric analysis relative to control
RESULT_TYPE: inhibition (%)
Give your result in % as a bare value.

| MOLECULE | ASSAY_VALUE |
| --- | --- |
| COc1ccc(CNC(=O)c2cc3c(=O)n4ccccc4nc3n(CCc3ccccc3)c2=N)cc1 | 45.7 |

What the record says about CC(O)(c1ccc(Cl)cc1)C(CN1CCCCC1)c1ccccc1 (stereo not given) : inhibition is 11.9

What the record says about Cc1ccc(C(=O)c2oc3ccc4c(C)cc(=O)oc4c3c2C)cc1 : inhibition is 53.6

* * *

- MEASURED_ON: Cruzipain (Trypanosoma cruzi) (UniProt P25779)
- PROTOCOL_SUMMARY: Inhibition of recombinant Trypanosoma cruzi cruzain at 5 uM using Z-FR-AMC as substrate preincubated for 10 mins followed by substrate addition and measured at 12 sec interval for 5 mins by fluorimetric analysis relative to control
- ASSAY_CONDITIONS: time 15.0 min
RESULT_TYPE: inhibition (%)
Give your result in % as a bare value.

Please review the following examples before continuing.
| MOLECULE | MEASURED_ON | UNITS_TEXT | inhibition |
| --- | --- | --- | --- |
| COc1ccc2sc(N(Cc3cccnc3)C(=O)c3ccc(C#N)cc3)nc2c1 | Cruzipain (Trypanosoma cruzi) (UniProt P25779) | % | 72.3 |
| COCCNC(=O)c1ccc(OC2CCN(Cc3ccc(F)c(F)c3)CC2)c(Cl)c1 | Cruzipain (Trypanosoma cruzi) (UniProt P25779) | % | 74.5 |
| COc1ccc(OC)c(C2C3=C(CC(C)(C)CC3=O)N(c3ccc(Cl)c(Cl)c3)C3=C2C(=O)CC(C)(C)C3)c1 | Cruzipain (Trypanosoma cruzi) (UniProt P25779) | % | 72 |

Field inhibition (system: Cruzipain (Trypanosoma cruzi) (UniProt P25779)) for entry CCOc1cc(CNC(C)C(O)c2ccccc2)cc(Cl)c1OCC (configuration not stated) = 46.8

Field inhibition (system: Cruzipain (Trypanosoma cruzi) (UniProt P25779)) for entry COc1cc2c3cc1Oc1c(OC)c(OC)cc4c1C(Cc1ccc(O)c(c1)Oc1ccc(cc1)CC3N(C)CC2)N(C)CC4 (configuration not stated) = 41.7

Field inhibition (system: Cruzipain (Trypanosoma cruzi) (UniProt P25779)) for entry COCCNCC(O)Cn1c2ccc(Cl)cc2c2cc(Cl)ccc21 (configuration not stated) = 42.1

Field inhibition (system: Cruzipain (Trypanosoma cruzi) (UniProt P25779)) for entry FC(F)(F)c1cccc(CNC2CCN(CCc3ccccc3)CC2)c1 = 65.1

Field inhibition (system: Cruzipain (Trypanosoma cruzi) (UniProt P25779)) for entry COc1ccc(Br)cc1C1Nc2ccc3ccccc3c2C2=C1C(=O)CC(c1ccccc1)C2 (configuration not stated) = 37.3

* * *

- Test system: Trypanosoma brucei rhodesiense
- PROTOCOL_SUMMARY: Trypanocidal activity against Trypanosoma brucei rhodesiense STI B900 assessed as reduction in parasite viability
- Format: functional, organism-based
// reported pIC50 per item
Just so you know, pIC50 here is -log10 of the concentration in molar units; reply with that number alone.

Please review the following examples before continuing.
| COMPOUND | RESULT_TYPE | ASSAY_VALUE |
| --- | --- | --- |
| Cn1c(=O)n(C)c2cc(CNCCNc3ccnc4cc(Cl)ccc34)ccc21 | pIC50 | 6.40 |
| Cc1ccc(C(=O)c2oc3ccc4c(C)cc(=O)oc4c3c2C)cc1 | pIC50 | 4.49 |
| c1ccc(-c2ccc(-c3nc4ccccc4[nH]3)cc2)cc1 | pIC50 | 4.49 |
| CC(=O)c1ccc(NC(=O)CSc2nc(-c3ccccc3Cl)ns2)cc1 | pIC50 | 4.49 |
| Cc1nc2ccccc2c(O)c1CC=C(Cl)Cl | pIC50 | 4.49 |
| COCCNCC(O)Cn1c2ccc(Cl)cc2c2cc(Cl)ccc21 (stereo not drawn) | pIC50 | 6.40 |
| CCOc1cccc(C(=O)Nc2ccc(-c3nc4ccccc4[nH]3)cc2)c1 | pIC50 | 4.49 |

What the record says about Cl.Cl.Clc1cc(Br)ccc1-c1ccc(CNCC2CCNCC2)o1 : pIC50 is 7.00
